- assay protocol: CellTiter-Glo cell viability
- Type: cell-based
- experimental setup: human, p53_construct Mut; Compound_conc 0.78125; CTG 4 days; read-out: mean (normalized viability)
readout label: viability at 4 days (%)
Kindly answer with a numeric value in %, unit omitted.

Data request: Fill in the blank: the reported viability at 4 days of CC[C@@H]1C(=O)N(C)c2cnc(Nc3ccc(C(=O)NC4CCN(C)CC4)cc3OC)nc2N1C1CCCC1 is ____.
Data returned: 119

* * *

- assay protocol: CellTiter-Glo cell viability
- Assay type: cell-based
- experimental setup: human, MCF7 cells, Concentration 5000, 4 day, read-out: mean_norm (normalized viability)
readout label: viability at 4 day (%)
Kindly answer with a numeric value in %, unit omitted.

Data request: Fill in the blank: the reported viability at 4 day of CC[C@@H]1C(=O)N(C)c2cnc(Nc3ccc(C(=O)NCCOCCOCCOCCOCCC(=O)N4CCC(Nc5cccc6c5cc(C#CCNc5ccc(S(C)(=O)=O)cc5OC)n6CC(F)(F)F)CC4)cc3OC)nc2N1C1CCCC1 [p53-01, PMV6-PEG4-BI2536] is ____.
Data returned: 49.8

* * *

- assay protocol: CellTiter-Glo cell viability
- Type: cell-based
- experimental setup: human, p53_construct WT; Compound_conc 50; CTG 4 days; read-out: mean (normalized viability)
readout label: viability at 4 days (%)
Kindly answer with a numeric value in %, unit omitted.

Data request: Fill in the blank: the reported viability at 4 days of CC[C@@H]1C(=O)N(C)c2cnc(Nc3ccc(C(=O)NC4CCN(C)CC4)cc3OC)nc2N1C1CCCC1 is ____.
Data returned: 49.4

* * *

- assay protocol: CellTiter-Glo cell viability
- Assay type: cell-based
- experimental setup: human, Huh7 cells, Concentration 625, 4 day, read-out: mean_norm (normalized viability)
readout label: viability at 4 day (%)
Kindly answer with a numeric value in %, unit omitted.

Data request: Fill in the blank: the reported viability at 4 day of CC[C@@H]1C(=O)N(C)c2cnc(Nc3ccc(C(=O)NCCOCCOCCOCCOCCC(=O)N4CCC(Nc5cccc6c5cc(C#CCNc5ccc(S(C)(=O)=O)cc5OC)n6CC(F)(F)F)CC4)cc3OC)nc2N1C1CCCC1 [p53-01, PMV6-PEG4-BI2536] is ____.
Data returned: 108

* * *

- assay protocol: viability with doxycycline-inducible construct
- Assay type: cell-based
- experimental setup: human, dox 1000; Concentration 0.0390625; read-out: mean_norm (normalized viability)
readout label: viability (%)
Kindly answer with a numeric value in %, unit omitted.

Data request: Fill in the blank: the reported viability of CC[C@@H]1C(=O)N(C)c2cnc(Nc3ccc(C(=O)NC4CCN(C)CC4)cc3OC)nc2N1C1CCCC1 [BI2536] is ____.
Data returned: 97.3

* * *

- assay protocol: CellTiter-Glo cell viability
- Assay type: cell-based
- experimental setup: human, LNCaP cells, LNCAP; Concentration 39.0625; 4 day; read-out: mean_norm (normalized viability)
readout label: viability at 4 day (%)
Kindly answer with a numeric value in %, unit omitted.

Data request: Fill in the blank: the reported viability at 4 day of CC[C@@H]1C(=O)N(C)c2cnc(Nc3ccc(C(=O)NCCOCCOCCOCCOCCC(=O)N4CCC(Nc5cccc6c5cc(C#CCNc5ccc(S(C)(=O)=O)cc5OC)n6CC(F)(F)F)CC4)cc3OC)nc2N1C1CCCC1 is ____.
Data returned: 96.3

The measured values listed here are drawn from paper PMC13128454.
